Measured EC50 accompanies every entry in the list below.
- System tested: T1, recombinant human CD73 protein (ACRO Biosystems, item No. CD3-H52H7) (human, UniProt P21589 27-547)
- T1 construct: also called recombinant CD73 protein
- T1 sequence (looked up): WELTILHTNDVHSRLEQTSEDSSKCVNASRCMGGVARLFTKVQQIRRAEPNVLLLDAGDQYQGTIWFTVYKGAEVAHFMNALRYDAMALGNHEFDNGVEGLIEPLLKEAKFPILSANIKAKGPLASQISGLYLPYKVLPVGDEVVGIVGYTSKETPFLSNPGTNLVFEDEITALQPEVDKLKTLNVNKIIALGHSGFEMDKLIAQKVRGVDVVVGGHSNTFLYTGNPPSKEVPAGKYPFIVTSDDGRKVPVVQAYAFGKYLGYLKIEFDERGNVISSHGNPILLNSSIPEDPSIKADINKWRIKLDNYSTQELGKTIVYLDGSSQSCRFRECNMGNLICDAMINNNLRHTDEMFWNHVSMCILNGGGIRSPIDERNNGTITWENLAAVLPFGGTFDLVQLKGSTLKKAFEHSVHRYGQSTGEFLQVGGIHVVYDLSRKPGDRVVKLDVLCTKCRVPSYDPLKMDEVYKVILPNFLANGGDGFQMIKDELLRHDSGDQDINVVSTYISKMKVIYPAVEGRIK
- Assay text: ELISA, plate coated with CD73 protein, anti-human-IgG-Fc-HRP
Assay readout: EC50

INSERT INTO results (binder, assay_readout, value) VALUES
  ('900728 (humanized anti-CD73 antigen-binding protein) (antibody, V domains shown) VH: QVQLVQSGAEVKKPGASVKVSCKASGYTFTSYWIHWVRQAPGQGLEWIGMIHPNSGSTYYNEKFQGRVTMTVDKSTSTAYMELSSLRSEDTAVYYCARYYGSDYEWYFDVWGQGTTVTVSS VL: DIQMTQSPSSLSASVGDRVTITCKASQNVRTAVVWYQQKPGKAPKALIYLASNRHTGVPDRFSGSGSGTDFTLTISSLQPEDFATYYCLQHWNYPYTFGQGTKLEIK', 'EC50', '0.29 µg/mL'),
  ('900725 (humanized anti-CD73 antigen-binding protein) (antibody, V domains shown) VH: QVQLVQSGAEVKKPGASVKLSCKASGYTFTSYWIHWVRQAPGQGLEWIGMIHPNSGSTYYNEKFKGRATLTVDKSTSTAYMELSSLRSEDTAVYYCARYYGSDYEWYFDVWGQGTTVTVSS VL: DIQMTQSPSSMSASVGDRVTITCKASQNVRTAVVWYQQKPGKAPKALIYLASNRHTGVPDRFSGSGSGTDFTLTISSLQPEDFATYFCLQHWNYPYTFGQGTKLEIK', 'EC50', '0.327 µg/mL'),
  ('900567 (human-mouse chimeric anti-CD73 antigen-binding protein expressed from 124A9 variable regions) (antibody, V domains shown) VH: QVQLQQPGAELVKPGASVKLSCKASGYTFTSYWIHWVKQRPGQGLDWIGMIHPNSGSTYYNEKFKSKATLTVDKSSSTAYMQLSSLTSEDSAVYYCARYYGSDYEWYFDVWGTGTTVTVSS VL: DIVMTQSQKFMSTSVGDRVSITCKASQNVRTAVVWYQQNPGQSPKALIYLASNRHTGVPDRFTGSGSGTDFTLTISNVHSEDLADYFCLQHWNYPYTFGGGTKLEIK', 'EC50', '0.282 µg/mL');
